Biological target: TGR5 (Homo sapiens, UniProt Q8TDU6)
Construct: expressed in transfected cells; host or cells: HEK293
Sequence (Q8TDU6 1-330): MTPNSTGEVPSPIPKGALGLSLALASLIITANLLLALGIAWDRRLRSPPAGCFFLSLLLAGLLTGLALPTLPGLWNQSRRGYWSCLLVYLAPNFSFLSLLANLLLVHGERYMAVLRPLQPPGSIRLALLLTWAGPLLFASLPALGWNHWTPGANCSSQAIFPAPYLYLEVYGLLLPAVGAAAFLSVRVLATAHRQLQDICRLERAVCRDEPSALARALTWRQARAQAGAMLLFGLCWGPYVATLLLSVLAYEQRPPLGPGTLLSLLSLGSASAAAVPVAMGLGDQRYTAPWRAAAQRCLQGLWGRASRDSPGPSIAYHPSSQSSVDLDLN
Experiment: TGR5 agonist test, HTRF cAMP detection in HEK293 cells transiently transfected with TGR5
Assay type: cell-based
Conditions: Table 2, TGR5 agonistic activity, HEK293 cells expressing TGR5, up to 100 μM, read-out: FXR (IC50/μM)
Metric: EC50

CCCC(=O)O[C@H]1CC[C@@]2(C)C(CC[C@]3(C)C2CCC2C4[C@H](C(C)C)CC[C@]4(C(=O)NCC(=O)O)CC[C@]23C)C1(C)C (stereo partly drawn); > 100 µM
CC(C)[C@@H]1CC[C@]2(C(=O)NCC(=O)O)CC[C@]3(C)C(CCC4[C@@]5(C)CC[C@@H](O)C(C)(C)C5CC[C@]43C)C12 (stereo partly drawn); > 100 µM
CCC(=O)O[C@@H]1CC[C@@]2(C)C(CC[C@]3(C)C2CCC2C4[C@H](C(C)C)CC[C@]4(C(=O)NCC(=O)O)CC[C@]23C)C1(C)C (stereo partly drawn); > 100 µM
CC(C)[C@@H]1CC[C@]2(C(=O)NCC(=O)O)CC[C@]3(C)C(CCC4[C@@]5(C)CC[C@@H](OC(=O)c6cccnc6)C(C)(C)C5CC[C@]43C)C12 (stereo partly drawn); > 100 µM
CC(=O)O[C@@H]1CC[C@@]2(C)C(CC[C@]3(C)C2CCC2C4[C@H](C(C)C)CC[C@]4(C(=O)NCC(=O)O)CC[C@]23C)C1(C)C (stereo partly drawn); > 100 µM

Here is another compound to look at.
Q: Look up EC50 for this compound: CCCC(=O)O[C@@H]1CC[C@@]2(C)C(CC[C@]3(C)C2CCC2C4[C@H](C(C)C)CC[C@]4(C(=O)NCC(=O)O)CC[C@]23C)C1(C)C (stereo partly drawn)
Ans: > 100 µM
